- assayed.system: T1, Cynomolgus monkey LRP-8 expressed on HEK293 cells (cynomolgus monkey)
- T1 construct: whole, on cells; also called cyno LRP-8; cLRP-8
- procedure.text: cell-based binding on CYNO LRP8-HEK293, supernatant 1:25
assay.readout: fold over isotype control (fold)
Report the figure in fold without appending any unit label.

For the binder shown here, anti-LRP-8 BGK.2C8.E6.D3 [r/m IgG2a/K] (antibody, V domains shown) VH: QVTLKESGPGILQPSQTLSLTCTFSGFSLNTYGMGVGWVRQPSGKGLEWLANIWWDDDKFYNPSLKNRLTVSKDTSNNQAFLRITNGDTADTATYFCARILGEDIGGALDAWGQGTSVTVSS VL: DTVLTQSPALAVSPGERVSISCRASEGVNSYMHWYQQNPGQQSKLLIYRTSNLASGVPARFGGSGSGTDFTLTIDPVEADDTATYFCQQSWNDPPTFGGGTKLELK , give the reported fold over isotype control.
13.8

Let us now turn to BGK-7F7 (GENOVAC candidate clone of Table 17) (antibody, V domains shown, here the candidate from rat immunization before chimerization, tested at dilutions) VH: QVTLKESGPGILQPSQTLSLTCTFSGFSLSTYGLGVGWIRQPSGKGLEWLANIWWDDAKYYNPSLKNRLTISKDTSNNQAFLKIPNVDTADTARYYCARTTKPYYFDYWGQGVMVTVSS VL: HFVLAQPNSVSTNLGSTVKLSCKRSTANIGSNYVNWYQQHEGRSPTTLIYRDDRRPDGVPDRFSGSIDRSSNSALLTINNVQTEDEADYFCQSYSSGINIFGGGTKLTVL
1.86

Let us now turn to anti-LRP-8 BGK.6E3.F4 [r/m IgG2a/K] (antibody, V domains shown, Rat variable domains on mouse IgG2a/kappa) VH: EVQLVESGGGLVQPGKSLKLSCAASGFTFSDYNMAWVRQAPKKGLEWVATIMYDGSRTFYRDSVKGRYTFSRDNAKSTLYLQMDSLRSEDTATYYCATGRNWFAYWGQGTLVTVSS VL: DIIMTQSPSSLAVSAGETVTINCKSSQSLLSSGKQKNYLAWYQQKPGQSPKLLIYLASTRESGVPDRFIGSGSGTDFTLTISSMQAEDLAIYYCQQHYDTPLTFGSGTKLEIK
1.02

Let us now turn to anti-LRP-8 BGK.5D10.E4 [r/m IgG2a/K] (antibody, V domains shown, Rat variable domains on mouse IgG2a/kappa) VH: QVQLRETGPDLVQPTQTLSLTCTVSGFSLTNYPVQWVRQPPGSGLEWLGIMWPSGAADFNPALKSRLSISRDTSKSQFFLRMDNLQTDDTAIYFCARGRGYSSPYAMDAWGQGTSVTVSS VL: DIQMTQSPASLSASLGETVSIECLASEDIYNNLAWYQQKPGKSPHLLIHFTSNLQDGVPSRFSGSGSGTQYSLKINSLESEDGATYFCLQDSEYPLTFGSGTKLEIK
30.2

Entry source: patent US20160200813A1
